Tested on: Chinese hamster fibroblast NR+ line (T79-A3), NR transfectant
Assay: Cytotoxicity, 18 h drug exposure, V79 NR+ line (T79-A3)
Type: cell-based
Details: Cricetulus griseus, Fibroblast; T79-A3 cells, 18 h drug exposure; read-out: V-79 NR+ IC50
RESULT_TYPE: IC50 (µM)
Record the value in µM, omitting the unit from your answer.

IN: Looking for the measured IC50 of NC(=O)c1c([N+](=O)[O-])ccc(N2CC2)c1[N+](=O)[O-] [Compound 13, 3-(aziridin-1-yl)-2,6-dinitrobenzamide] , can you help?
OUT: 135

IN: Same read-out for NC(=O)c1ccc([N+](=O)[O-])c(N2CC2)c1 [Compound 9, 3-(aziridin-1-yl)-4-nitrobenzamide] ?
OUT: 62

IN: Okay, and O=C(NCCn1ccnc1)c1cc(N2CC2)c([N+](=O)[O-])cc1[N+](=O)[O-] ?
OUT: 0.39

IN: Check O=C(NCC(O)CO)c1cc(N2CC2)c([N+](=O)[O-])cc1[N+](=O)[O-] (stereo not drawn) too.
OUT: 0.71

IN: // repeat for O=C(NCC(O)CO)c1cc([N+](=O)[O-])cc([N+](=O)[O-])c1N1CC1 (stereo not drawn) and report
OUT: 6
